system: AncSZ; experiment: phosphorylation enrichment, bacterial display (enrichment ratio); higher = better substrate or ligand; peptides without Tyr show the background;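 further: 11-residue human phosphosite peptides and single-mutation variants displayed on the E. coli surface, counted by deep sequencing, each peptide's frequency after selection divided by its frequency in the unselected input library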;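 further: frequency after pTyr selection over input frequency; kinase dosed for 20-30% of maximal phosphorylation in three min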
MEASURED_QUANTITY: phosphorylation enrichment
Just the number, please, no unit attached.

Answered cases to consult:
INSERT INTO assay_data (polymer_sequence, assay_result) VALUES
  ('FETSHYPASPD [CTNND2_Y1217_YF]', 0.52),
  ('LLNAIYLSAKR [SERPING1_Y294_W299R]', 1.58),
  ('RGSQQYRALPV [TUBB8_Y281_T285P]', 0.618),
  ('DGQVNYEEFVQ [CALM1_Y139]', 1.33),
  ('FLKDVYVDSKD [NDUFAF4_Y69]', 1.11);

Task: Report phosphorylation enrichment for TFHNTYHSQMR [IL1RAPL1_Y615] please.
Output: 0.631

Task: Moving on to YGSSSSGGAGG [RPA2_Y14_Y14S]
Output: 0.604

Task: Check KPPPSYESEEE [BRD4_Y599_T598S] too.
Output: 1.42

Task: Do the same for LWKWKYEELKE [CCDC102B_Y299] please
Output: 1.28

Task: Now try CEHFSYFGMKA [SLC15A2_Y60_R57H_YF] .
Output: 0.879

Task: Then this sequence: YSNVLYRPRGA [TMIGD2_Y197]
Output: 0.923

Task: Same question, RHRSGYVLIAM [EFR3A_Y73] this time
Output: 1.31

====

test system: Fer (mouse); experiment: phosphorylation enrichment, bacterial display (enrichment ratio); higher = better substrate or ligand; peptides without Tyr show the background
We use 0.5 as the dividing line for phosphorylation enrichment: on or above the line is 1 (yes), below is 0 (no).

Task: API: above_or_equal(metric=phosphorylation enrichment, cutoff=0.5) for item DYLEKYYKFGC [NNMT_Y24_S29C]
Output: 1 (yes)

Task: Next up: FSSLGYPLPEG [ZSWIM4_Y87_P89L_YF]
Output: 0 (no)

Task: Subsequent entry: YLRTGYSIPYG [TGM1_Y370_V372I]
Output: 0 (no)

Task: Moving on to the next sequence: WRVIGYHVVVW [ATP13A2_Y50]
Output: 1 (yes)

Task: Quick one: KLKRSYSSPDI [USP8_Y717]
Output: 0 (no)

Task: // query: GAVDTYCRHNF [HLA-DRB1_Y107_A102G_YF]
Output: 1 (yes)

====

system: AncSZ; test: phosphorylation enrichment, bacterial display (enrichment ratio); higher = better substrate or ligand; peptides without Tyr show the background
phosphorylation enrichment below 1 gives Criterion not met; phosphorylation enrichment at or above it gives Criterion met.

Completed entries (count: 3):
INSERT INTO results (polymer_sequence, target_under_test, classification) VALUES
  ('MGIMLYGVDSR [PKD1_Y3143_V3138M]', 'AncSZ', 'Criterion not met'),
  ('PDGREYIFVDP [PDGFRA_Y572_H570R_YF]', 'AncSZ', 'Criterion met'),
  ('KKMEVYQSIAD [MYBPC3_Y548_L545M]', 'AncSZ', 'Criterion not met');

Task: Does phosphorylation enrichment meet or surpass 1 for FGLQAYTKVKT [ALDH2_Y502_E504K_YF] ?
Output: Criterion met

Task: Let us now turn to TLLPDYEDEEE [ZNF830_Y159_S154T]
Output: Criterion met

Task: Same read-out for RELGEYALAEY [ALDH1A3_Y492] ?
Output: Criterion met

Task: Same thing, different sequence: KLNNEYLELNF [MME_Y497_YF]
Output: Criterion met

Task: Further, for TNYRFYLRSLE [MTM1_Y71_L70F] ?
Output: Criterion met
